tested on: biotinyl-Ile-oxazolone; assay: self-aminoacylation, catalytic enhancement (BIO) (fold over background); higher = more active; k-Seq, kA / k0A0; sequences stand for … in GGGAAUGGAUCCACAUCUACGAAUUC…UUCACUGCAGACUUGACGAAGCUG
Fewer inactive variants are shown than the library holds.
reported.endpoint: self-aminoacylation
Answer as a number with no unit attached.

Some solved cases for reference:
{"sequence": "AUAACCCUGGACAUCGAGUGA [Fam2.1 aminoacylation ribozyme variant]", "self-aminoacylation": 3.02}
{"sequence": "AGUCACCUAGGUCAUCGGAUG [Fam2.2 aminoacylation ribozyme variant]", "self-aminoacylation": 1.2}
{"sequence": "CCACUUCAACCAAUCGGUCUG [Fam1A.1 aminoacylation ribozyme variant]", "self-aminoacylation": 1.68}
{"sequence": "AUUACGCUGGUCAUCGAGUAA [Fam2.1 aminoacylation ribozyme variant]", "self-aminoacylation": 1.6}
{"sequence": "UUACUUCAAGCAAUCGGUCUG [Fam1A.1 aminoacylation ribozyme variant]", "self-aminoacylation": 0.993}

INPUT: Field request: self-aminoacylation | item: GUUCACCUAGGACAUCGGGUG [Fam2.2 aminoacylation ribozyme variant]
OUTPUT: 3.61

INPUT: Now this one: AUUCACCUAGGUCACCGUGUG [Fam2.2 aminoacylation ribozyme variant]
OUTPUT: 1.13

INPUT: AUUAACCUAGGUCAUCGCGUG [Fam2.2 aminoacylation ribozyme variant] , same question.
OUTPUT: 4.57

INPUT: Also need AUCAUCCUGGUCAUCGAGUGA [Fam2.1 aminoacylation ribozyme variant] , thanks.
OUTPUT: 4.91

INPUT: How about AUUCACCUAGCUCAUUGGGUG [Fam2.2 aminoacylation ribozyme variant] ?
OUTPUT: 1.44

* * *

test system: biotinyl-Leu-oxazolone; experiment: self-aminoacylation, catalytic enhancement (BLO) (fold over background); higher = more active; k-Seq, kA / k0A0; sequences stand for … in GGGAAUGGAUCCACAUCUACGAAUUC…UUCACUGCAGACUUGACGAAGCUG
This sample holds only a part of the variants without activity.
Parameter: self-aminoacylation. Scope: all listed entries.
Output spec: single numeric token, no unit.

Record excerpt, results attached:
{"sequence": "GUUCACCUGGGUCAUCGGGUG [Fam2.2 aminoacylation ribozyme variant]", "numeric.value": 5.35}
{"sequence": "AUUCGCCUAGGUCAUCGUGUG [Fam2.2 aminoacylation ribozyme variant]", "numeric.value": 1.35}
{"sequence": "AUUGACCUACGUCAUCGGGUG [Fam2.2 aminoacylation ribozyme variant]", "numeric.value": 6.43}
{"sequence": "AUUCUCCUAGGUCAUCGGGUA [Fam2.2 aminoacylation ribozyme variant]", "numeric.value": 8.96}
{"sequence": "AUUCCCCUAAGUCAUCGGGUG [Fam2.2 aminoacylation ribozyme variant]", "numeric.value": 85.8}

INPUT: Return self-aminoacylation measured with biotinyl-Leu-oxazolone given this sequence: CCACUACAAACAAUCGGUCUG [Fam1A.1 aminoacylation ribozyme variant]
OUTPUT: 1.14

INPUT: And then CCACACUUCAACCUAUCGGUC [Fam1B.1 aminoacylation ribozyme variant] , what is it?
OUTPUT: 0.995

INPUT: Next sequence: AGUCACCUUGGUCAUCGGGUG [Fam2.2 aminoacylation ribozyme variant]
OUTPUT: 6.96

INPUT: AAGUUUGCAAAUAUUCGCAAG [Fam3.1 aminoacylation ribozyme variant] , same question.
OUTPUT: 1.09

INPUT: Lookup CCACACUUCAUGCAAUCGGUG [Fam1B.1 aminoacylation ribozyme variant]
OUTPUT: 5.5

INPUT: What do we get for CCACACUUCAUACAAUCGGUC [Fam1B.1 aminoacylation ribozyme variant] ?
OUTPUT: 0.703

INPUT: Do the same for AUUACCCCGGUCAUCGUGUGA [Fam2.1 aminoacylation ribozyme variant] please
OUTPUT: 2.57

INPUT: And the next one, CUACUUCAAACAUUAGGUCUG [Fam1A.1 aminoacylation ribozyme variant] ?
OUTPUT: 0.6
